Value source: the supplement of paper PMC7595190

- Test system: CMK
- ASSAY_EXPLANATION: CellTox Green cytotoxicity fluorescence relative to DMSO vehicle (fold of vehicle RFU); higher = more cell death (loss of membrane integrity), active = 2 or more
- CONDITION_NOTES: 0.01 µM; 24 h
Where a name gives a salt, the structure may show the parent alone.
Assign CellTox Green cytotoxicity fluorescence to each entry below.
One number for each entry.

Below: 4 molecules and their reported CellTox Green cytotoxicity fluorescence.
Nc1cccc2c1C(=O)N(C1CCC(=O)NC1=O)C2=O (configuration not stated) [Pomalidomide] :: 1
N#Cc1ccc(-c2c(-c3ncn[nH]3)sc(N3CCOCC3)c2C#N)c(F)c1 :: 0.974
COc1c/c(=C2\C=c3ccccc3=N2)[nH]/c1=C\c1[nH]c(C)cc1C [Obatoclax Mesylate] :: 0.914
Nc1cccc2c1CN(C1CCC(=O)NC1=O)C2=O (configuration not stated) [Lenalidomide] :: 0.938

Your task in this section: give CellTox Green cytotoxicity fluorescence for each listed record.
1. CN(C)CC[C@H](CSc1ccccc1)Nc1ccc(S(=O)(=O)NC(=O)c2ccc(N3CCN(Cc4ccccc4-c4ccc(Cl)cc4)CC3)cc2)cc1[N+](=O)[O-]
2. O=C1C(=O)N(Cc2ccc(Cl)c(Cl)c2)c2ccccc21
3. CC[C@H](NC(=O)[C@H](C)NC)C(=O)N1C[C@@H](O)C[C@H]1Cc1c(-c2[nH]c3cc(F)ccc3c2C[C@@H]2C[C@H](O)CN2C(=O)[C@H](CC)NC(=O)[C@H](C)NC)[nH]c2cc(F)ccc12

**A:**
1. 0.932
2. 1.01
3. 0.985
